- Tested on: human cervical cancer (HeLa) cells
- experiment_description: cells
- Type: cell-based
- conditions: Homo sapiens, HeLa; MTT, 24 h exposure; read-out: IC50 on Cervical Cancer (HeLa)
metric: IC50

- C[C@H]1COc2c(N3CCN(C)CC3)c(F)cc3c(=O)c(C(=O)O)cn1c23 [Levofloxacin, reference compound]: > 100 µM

----------
- System: human red blood cells (RBC)
- experiment_description: Hemolytic assay
- Type: cell-based
- conditions: red cells of human, 1 h
Where a SMILES comes first, the peptide text is derived from it. [ ]: non-standard residue; d: D form. The star is where a group is joined. Levofloxacinoyl = C[C@H]1COc2c(N3CCN(C)CC3)c(F)cc3c(=O)c(C(=O)*)cn1c23; βAla = NCCC(=O)O
metric: HC50 on Human Red Blood Cells (RBCs) (µM)

* CC[C@H](C)[C@H](NC(=O)[C@@H](NC(=O)CNC(=O)[C@H](CCSC)NC(=O)[C@H](CC(C)C)NC(=O)CNC(=O)[C@H](CCCCNC(=O)c1cn2c3c(c(N4CCN(C)CC4)c(F)cc3c1=O)OC[C@@H]2C)NC(=O)[C@H](CC(C)C)NC(=O)[C@@H](N)Cc1ccccc1)C(C)C)C(=O)N[C@H](C)C(=O)N[C@@H](CO)C(=O)N[C@@H](CC(C)C)C(=O)N[C@@H](Cc1ccccc1)C(=O)N[C@@H](CCCCN)C(N)=O [RLFP-2 (5)] (H-FLK(Levofloxacinoyl)GLMGVI[dA]SLFK-NH2) | 25.0
* CC[C@H](C)[C@H](NC(=O)[C@@H](NC(=O)CNC(=O)[C@H](CCSC)NC(=O)[C@H](CC(C)C)NC(=O)CNC(=O)[C@H](CCCCN)NC(=O)[C@H](CC(C)C)NC(=O)[C@H](Cc1ccccc1)NC(=O)CCNC(=O)c1cn2c3c(c(N4CCN(C)CC4)c(F)cc3c1=O)OC[C@@H]2C)C(C)C)C(=O)N[C@H](C)C(=O)N[C@@H](CO)C(=O)N[C@@H](CC(C)C)C(=O)N[C@@H](Cc1ccccc1)C(=O)N[C@@H](CCCCN)C(N)=O [RLFP-3 (6)] ({Levofloxacinoyl-βAla}-FLKGLMGVI[dA]SLFK-NH2) | 6.6
* CC[C@H](C)[C@H](NC(=O)[C@@H](NC(=O)CNC(=O)[C@H](CCSC)NC(=O)[C@H](CC(C)C)NC(=O)CNC(=O)[C@H](CCCCN)NC(=O)[C@H](CC(C)C)NC(=O)[C@@H](N)Cc1ccccc1)C(C)C)C(=O)N[C@H](C)C(=O)N[C@@H](CO)C(=O)N[C@@H](CC(C)C)C(=O)N[C@@H](Cc1ccccc1)C(=O)N[C@@H](CCCCNC(=O)c1cn2c3c(c(N4CCN(C)CC4)c(F)cc3c1=O)OC[C@@H]2C)C(N)=O [RLFP-1 (4)] (H-FLKGLMGVI[dA]SLFK(Levofloxacinoyl)-NH2) | 98.9
* CC[C@H](C)[C@H](NC(=O)[C@@H](NC(=O)CNC(=O)[C@H](CCSC)NC(=O)[C@H](CC(C)C)NC(=O)CNC(=O)[C@H](CCCCN)NC(=O)[C@H](CC(C)C)NC(=O)[C@@H](N)Cc1ccccc1)C(C)C)C(=O)N[C@H](C)C(=O)N[C@@H](CO)C(=O)N[C@@H](CC(C)C)C(=O)N[C@@H](Cc1ccccc1)C(=O)N[C@@H](CCCCN)C(N)=O [RSP-1 (3)] (H-FLKGLMGVI[dA]SLFK-NH2) | 51.0
* CC[C@H](C)[C@H](NC(=O)[C@@H](NC(=O)CNC(=O)[C@H](CCSC)NC(=O)[C@H](CC(C)C)NC(=O)[C@H](CCCCN)NC(=O)[C@H](CCCCN)NC(=O)[C@H](CC(C)C)NC(=O)[C@H](Cc1ccccc1)NC(=O)CCNC(=O)c1cn2c3c(c(N4CCN(C)CC4)c(F)cc3c1=O)OC[C@@H]2C)C(C)C)C(=O)N[C@H](C)C(=O)N[C@@H](CO)C(=O)N[C@@H](CC(C)C)C(=O)N[C@@H](Cc1ccccc1)C(N)=O [RLFP-4 (8)] ({Levofloxacinoyl-βAla}-FLKKLMGVI[dA]SLF-NH2) | 4.5
* CC[C@H](C)[C@H](NC(=O)[C@@H](NC(=O)CNC(=O)[C@H](CCSC)NC(=O)[C@H](CC(C)C)NC(=O)CNC(=O)[C@H](CCCCN)NC(=O)[C@H](CC(C)C)NC(=O)[C@@H](N)Cc1ccccc1)C(C)C)C(=O)N[C@H](C)C(=O)N[C@@H](CO)C(=O)N[C@@H](CC(C)C)C(=O)N[C@@H](Cc1ccccc1)C(N)=O [RNST-2 (2)] (H-FLKGLMGVI[dA]SLF-NH2) | 13.8
